Biological target: T1, mouse IL-2Rβ (mouse) (UniProt P16297)
T1 sequence (looked up): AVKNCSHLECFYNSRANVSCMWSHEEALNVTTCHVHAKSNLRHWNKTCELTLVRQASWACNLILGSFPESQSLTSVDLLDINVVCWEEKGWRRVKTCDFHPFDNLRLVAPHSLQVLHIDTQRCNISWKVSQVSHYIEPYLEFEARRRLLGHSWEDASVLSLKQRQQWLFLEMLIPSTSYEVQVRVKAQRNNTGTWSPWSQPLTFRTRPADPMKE
Test: P.E. ELISA, coated protein
endpoint: P.E. binding ELISA OD (OD450 nm)

FJ1427 P035MP02F04 (VHH) VHH: EVQLVESGGGLVQTGGSLRLSCAASGSQFINDVMGWYRQVPGKQRELVADMDDTGSTKYADSVKGRFTILRDSVKNTAYLQMSNLKPEDTGVYYCKAGLWIKGRHFDYWGQGTQVTVSS | 0.048
FJ1427_P035MP02B08 (VHH) VHH: EVQLVESGGGLVQAGGSLRLSCAASGRAIENYPVGWFRQAPGKEREFVAAITWISGSTLYADSVKGRFTISRDNAKNTVYLQMSSLKPEDTALYYCAAALKTITRGQNDYSYWGQGTQVTVSS | 0.048
FJ1427 P035MP06E05 (VHH) VHH: QVQLVESGGELVQGGASLRLSCAASGRTFSNANMAWFRQAPEKEREFVALITWSSGSTLYADSVKGRFTISRDNARKMVYLQMNSLKPEDTAVYYCAADGPPYSGTYYRYDTYDYWGQGTQVTVSS | 0.046
FJ1427 P035MP03A12 (VHH) VHH: EVQLVESGGGLVQAGGSLRLSCAASGRTFSINAMGWFRQAPGKEREFVAAISRSGGSTVYVDGVKGRFTISRDNAKNTVYLQMNSLEPEDTAVYYCAATMAVGWTTRWRTADFDSWGQGTQVTVSS | 0.05
